Assay: Plasma pharmacokinetics of 17-DMAG by HPLC-MS, non-compartmental analysis
Assay type: in vivo, human
Conditions: human, iv, 40 mg/m^2
Reported Property: AUC (µM·h)
One number for each entry, in µM·h.

Could you tell me which AUC is on file for "CO[C@H]1/C=C\C=C(/C)C(=O)NC2=CC(=O)C(NCCN(C)C)=C(C[C@@H](C)C[C@H](OC)[C@H](O)[C@@H](C)/C=C(\C)[C@@H]1OC(N)=O)C2=O" ?
6.51

====

Test: Plasma pharmacokinetics of 17-DMAG by HPLC-MS, non-compartmental analysis
Type: in vivo, human
Conditions: human, iv, 2.5 mg/m^2
Reported Property: Cmax (nM)
Answers are plain numbers, in nM.

Could you tell me which Cmax is on file for CO[C@H]1/C=C\C=C(/C)C(=O)NC2=CC(=O)C(NCCN(C)C)=C(C[C@@H](C)C[C@H](OC)[C@H](O)[C@@H](C)/C=C(\C)[C@@H]1OC(N)=O)C2=O [17-DMAG] ?
64.1

====

Assay: Plasma pharmacokinetics of 17-DMAG by HPLC-MS, non-compartmental analysis
Assay type: in vivo, human
Conditions: human, iv, 20 mg/m^2
Reported Property: half-life (h)
One number for each entry, in h.

Could you tell me which half-life is on file for "CO[C@H]1/C=C\C=C(/C)C(=O)NC2=CC(=O)C(NCCN(C)C)=C(C[C@@H](C)C[C@H](OC)[C@H](O)[C@@H](C)/C=C(\C)[C@@H]1OC(N)=O)C2=O" ?
28.7
